B1: POU domain, class 3, transcription factor 2, residues 356 to 411; numbered along this chain, P20265 (parent)
chain: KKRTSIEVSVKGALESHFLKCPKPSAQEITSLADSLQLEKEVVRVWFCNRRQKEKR

# Variants of: B1
# measurement-protocol: abundance fitness (aPCA) (normalised: wild type 0, dead -1); higher = more abundant; growth selection in yeast, the domain comes from the species named
# condition-context: Homo sapiens
Classification field: enter rule met for abundance fitness values not below -0.2, rule not met for values below it.

mutations	class
K40A	rule met
R3M	rule met
G12T	rule met
K1L	rule not met
V8I	rule met
R56M	rule met
E41Y	rule not met
I6M	rule met
P22S	rule not met
E54V	rule not met
S35I	rule met
V42E	rule met
Q27W	rule not met
T4K	rule not met
S35K	rule met
G12V	rule met
S35R	rule met
K40F	rule met
R51N	rule not met
F47I	rule not met
K53C	rule met
E28Q	rule not met
P24A	rule not met
K2A	rule met
K20V	rule not met
K55R	rule not met
V8M	rule met
R51A	rule met
F47M	rule not met
S9W	rule met
S16K	rule met
S5G	rule met
S5H	rule met
I6K	rule met
K11I	rule met
F47A	rule not met
S9E	rule met
R44A	rule met
L38T	rule not met
K20Y	rule not met
K11D	rule met
K1I	rule not met
L38Y	rule not met
S5R	rule met
E41M	rule not met
K11E	rule met
E39R	rule not met
R51H	rule met
S25V	rule not met
A33S	rule not met
V10C	rule not met
V43Y	rule not met
C48R	rule not met
E39I	rule not met
R50G	rule not met
L19I	rule met
K1R	rule not met
S25C	rule not met
C48Q	rule met
H17C	rule not met
A26H	rule met
K23M	rule met
A33N	rule not met
V42Y	rule met
K11G	rule met
E7G	rule met
I6C	rule met
P24M	rule not met
E54C	rule not met
R51T	rule not met
E41S	rule not met
G12F	rule met
D34Y	rule met
N49C	rule met
K55A	rule met
L36F	rule not met
I29L	rule met
R56D	rule met
R56T	rule met
V8A	rule met
F47V	rule not met
E41H	rule met
K23W	rule not met
V8R	rule met
A26K	rule met
K2H	rule not met
Q37C	rule met
C48K	rule met
R44S	rule met

Values from the Human Domainome abundance scans (Beltran et al. 2025)
